molecular target: Probable integral membrane cytochrome D ubiquinol oxidase (Subunit II) CydB (Cytochrome BD-I oxidase subunit II) (Mycobacterium tuberculosis (strain ATCC 25618 / H37Rv), UniProt O06139); experiment: Mtb cytochrome bd inhibition assay
pIC50: −log10 of the molar value.
Each entry gets Not satisfied if its pIC50 stays under 7, and Satisfied if its pIC50 is 7 or above.

Answered cases to consult:
compound	assigned.class
O=c1cc(-c2cnn(Cc3ccc(OC(F)(F)F)cc3)c2)[nH]c2ccccc12 [US10799494, Compound WDH-1W-5]	Not satisfied
Cc1c(-c2ccc(-c3ccc(C(F)(F)F)cc3)nc2)[nH]c2ccccc2c1=O [US10799494, Example RKA 142]	Not satisfied
Cc1c(-c2ccc(N3CCCCC3)cc2)[nH]c2cc(F)cc(F)c2c1=O [US10799494, Compound MTD-403]	Not satisfied
Cc1c(-c2ccc(Cc3ccccc3)cc2)[nH]c2ccccc2c1=O [US10799494, Compound CK-2-88]	Satisfied

Problem: Has Cc1c(-c2ccc(-c3ccc(OC(F)(F)F)cc3)nc2)[nH]c2ccccc2c1=O [US10799494, Compound SL-2-25] a recorded pIC50 greater than or equal to 7?
Result: Not satisfied

----------
Measured IC50 by item
biological target: Probable integral membrane cytochrome D ubiquinol oxidase (Subunit II) CydB (Cytochrome BD-I oxidase subunit II) (Mycobacterium tuberculosis (strain ATCC 25618 / H37Rv)); experiment: Mtb cytochrome bd inhibition assay
Write it as a number; the unit µM goes unstated.

Problem: May I ask what IC50 has been recorded for Cc1c(-c2ccc(-c3ccc(C(F)(F)F)nc3)nc2)[nH]c2ccccc2c1=O [US10799494, Compound PG-128] ?
Result: 4.47

Problem: May I ask what IC50 has been recorded for Cc1c(-c2cnn(Cc3ccc(OC(F)(F)F)cc3)c2)[nH]c2ccccc2c1=O [US10799494, Compound WDH-2A-9] ?
Result: 6.5

Problem: May I ask what IC50 has been recorded for O=c1cc(-c2ccc(Cc3ccc(OC(F)(F)F)cc3)cc2)[nH]c2ccccc12 [US10799494, Compound RKA-70] ?
Result: 0.75

Problem: May I ask what IC50 has been recorded for CC(C)c1c(-c2cnn(Cc3ccc(OC(F)(F)F)cc3)c2)[nH]c2ccccc2c1=O [US10799494, Example WDH-2G-6] ?
Result: 0.082

----------
Molecular target: Probable integral membrane cytochrome D ubiquinol oxidase (Subunit II) CydB (Cytochrome BD-I oxidase subunit II) (Mycobacterium tuberculosis (strain ATCC 25618 / H37Rv), UniProt O06139)
Sequence (O06139 whole entry): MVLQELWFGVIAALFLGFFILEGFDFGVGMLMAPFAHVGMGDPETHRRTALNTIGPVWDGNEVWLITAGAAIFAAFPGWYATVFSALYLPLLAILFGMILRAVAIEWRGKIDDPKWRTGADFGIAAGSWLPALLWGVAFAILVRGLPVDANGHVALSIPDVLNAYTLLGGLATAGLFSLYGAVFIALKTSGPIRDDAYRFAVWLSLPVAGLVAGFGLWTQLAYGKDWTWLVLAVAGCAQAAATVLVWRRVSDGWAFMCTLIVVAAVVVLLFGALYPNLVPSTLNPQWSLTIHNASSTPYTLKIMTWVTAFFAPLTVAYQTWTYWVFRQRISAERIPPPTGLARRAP
Test: Mtb cytochrome bd inhibition assay
readout.name: pIC50
// pIC50 here means minus log10 of the molar concentration (mol/L)

Use the examples below as a reference point.
compound	readout.name	reported.measurement
Cc1c(-c2ccc(N3CCCCC3)cc2)[nH]c2ccccc2c1=O [US10799494, Compound RKA-307]	pIC50	6.36
CCOC(=O)c1c(-c2ccc(Cc3ccc(OC(F)(F)F)cc3)cc2)[nH]c2ccccc2c1=O [US10799494, Compound GN-1710]	pIC50	6.60
COc1c(C)c(-c2ccc(Cc3ccccc3)cc2)nc2ccccc12 [US10799494, Compound CK-3-23]	pIC50	5.44
COc1ccc2c(=O)c(C)c(-c3ccc(N4CCCCC4)cc3)[nH]c2c1 [US10799494, Compound RKA-310]	pIC50	5.85
O=c1cc(-c2ccc(Cc3ccc(OC(F)(F)F)cc3)cc2)n(O)c2ccccc12 [US10799494, Compound RKA-73]	pIC50	6.51

Problem: May I ask what pIC50 has been recorded for Cc1c(-c2ccc(Oc3ccc(F)cc3)nc2)[nH]c2ccccc2c1=O [US10799494, Compound CK-3-14] ?
Result: 4.97

Problem: May I ask what pIC50 has been recorded for COc1ccc2c(=O)c(C)c(-c3ccc(Oc4ccc(OC(F)(F)F)cc4)nc3)[nH]c2c1 [US10799494, Compound RKA-259] ?
Result: 5.44
